Sourced from paper PMC3958441

Biological target: T1, Pou4f2 (Brn3b) (mouse, UniProt Q63934 1-411)
T1 sequence: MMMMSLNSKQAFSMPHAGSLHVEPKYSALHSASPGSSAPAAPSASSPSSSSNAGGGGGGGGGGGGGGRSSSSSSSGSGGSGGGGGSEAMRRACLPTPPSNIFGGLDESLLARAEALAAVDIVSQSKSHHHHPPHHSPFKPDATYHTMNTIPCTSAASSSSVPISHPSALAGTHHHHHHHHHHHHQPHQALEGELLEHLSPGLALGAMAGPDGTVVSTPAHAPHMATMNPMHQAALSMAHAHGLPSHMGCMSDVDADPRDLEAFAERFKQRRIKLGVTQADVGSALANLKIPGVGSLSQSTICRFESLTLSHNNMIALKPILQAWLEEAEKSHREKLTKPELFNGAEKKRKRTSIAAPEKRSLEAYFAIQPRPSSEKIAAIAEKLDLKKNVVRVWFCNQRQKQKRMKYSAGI
Experiment: EMSA; EMSA: 20 mM Tris-HCl pH 7.5, 50 mM NaCl, 10 mM DTT, 1 mM EDTA, 5% glycerol, 200 ng dI/dC, 200 ng each protein in 20 ul, 4 C, 30 min; 8% PAGE, 1x TBE, 4 C
Details: protein: recombinant; tags: His (C-terminal, pET-28a); (radiolabel, Klenow fill-in); 5' overhang 1 nt at both ends before fill-in

>  <Binder>
SBRN3(M) (dsDNA) DNA 1: GCACACGACCCAGCGCGTTGACAACCGGGCTG DNA 2: GCAGCCCGGTTGTCAACGCGCTGGGTCGTGTG

>  <binding result>
no binding

$$$$
>  <Binder>
CBRN3(M) (dsDNA) DNA 1: GATCTCTCCTGCGCGGTTGACTACCCCCGGAT DNA 2: GATCCGGGGGTAGTCAACCGCGCAGGAGAGAT

>  <binding result>
no binding

$$$$
>  <Binder>
CBRN3(W) (dsDNA) DNA 1: GATCTCTCCTGCATAATTAATTACCCCCGGAT DNA 2: GATCCGGGGGTAATTAATTATGCAGGAGAGAT

>  <binding result>
binds

$$$$
>  <Binder>
SBRN3(W) (dsDNA) DNA 1: GCACACGACCCAATGAATTAATAACCGGGCTG DNA 2: GCAGCCCGGTTATTAATTCATTGGGTCGTGTG

>  <binding result>
binds

$$$$
